Catalogue of HDAC2 activity raw data (signal) readings, one per entry.
- experimental.target: HDAC2 (Homo sapiens)
- Construct: purchased Reaction Biology Corporation (assay run by the CRO)
- Sequence (Q92769 whole entry): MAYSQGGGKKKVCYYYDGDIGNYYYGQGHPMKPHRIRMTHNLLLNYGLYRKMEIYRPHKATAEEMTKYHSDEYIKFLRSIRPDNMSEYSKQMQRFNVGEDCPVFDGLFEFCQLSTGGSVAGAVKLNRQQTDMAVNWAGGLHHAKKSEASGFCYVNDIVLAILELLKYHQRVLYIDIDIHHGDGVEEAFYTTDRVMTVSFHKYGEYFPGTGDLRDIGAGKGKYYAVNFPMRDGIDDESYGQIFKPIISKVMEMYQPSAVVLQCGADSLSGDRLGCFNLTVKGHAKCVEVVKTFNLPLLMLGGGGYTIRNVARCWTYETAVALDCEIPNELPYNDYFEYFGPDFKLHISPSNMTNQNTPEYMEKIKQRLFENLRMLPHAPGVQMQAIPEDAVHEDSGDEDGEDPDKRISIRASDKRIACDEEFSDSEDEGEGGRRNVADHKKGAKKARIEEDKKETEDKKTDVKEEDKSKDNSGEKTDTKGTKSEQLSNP
- test.description: HDAC2 inhibition, full IC50 measurement (Reaction Biology; fluorogenic p53 peptide RHKK(Ac)AMC)
- Assay type: biochemical
- experimental.context: Conc. 3.70E-07 M, t1
Peptide text beside a SMILES is read from it.

# molecule, experimental.target, HDAC2 activity raw data (signal)
data = [
    ("CSCC[C@H]1NC(=O)[C@@H](CO)NC(=O)[C@H](CC(N)=O)NC(=O)[C@H](CC(=O)O)NC(=O)[C@@H]([C@H](C)O)NC(=O)[C@H](Cc2c[nH]c3ccccc23)NC(=O)[C@H](CCCCCS)NC(=O)[C@H](CCCCN)NC(=O)[C@@H](CC(=O)O)NC1=O [des2.1.1, SHA-Trp-dThr-Asp-Asn-dSer-dMet-dAsp-Lys] (HELM PEPTIDE1{D.N.[dS].[dM].[dD].K.[O=C([C@H](CCCCCS)N[*:1])[*:2]].W.[dT]}$PEPTIDE1,PEPTIDE1,1:R1-9:R2$$$V2.0)", "HDAC2 (Homo sapiens)", 88233),
    ("NCCCC[C@@H]1NC(=O)[C@@H]2CCCN2C(=O)[C@H](CC(N)=O)NC(=O)[C@H](CCCCCS)NC(=O)CNC(=O)[C@H](Cc2c[nH]c3ccccc23)NC(=O)[C@@H](CCCCN)NC(=O)[C@H](CCC(N)=O)NC1=O [des1.1.0, SHA-Asn-Pro-Lys-Gln-dLys-Trp-Gly] (HELM PEPTIDE1{G.[O=C([C@H](CCCCCS)N[*:1])[*:2]].N.P.K.Q.[dK].W}$PEPTIDE1,PEPTIDE1,1:R1-8:R2$$$V2.0)", "HDAC2 (Homo sapiens)", 469170),
    ("CC(C)[C@@H]1NC(=O)[C@H](CCCNC(=N)N)NC(=O)[C@@H](CC(=O)O)NC(=O)[C@H](CO)NC(=O)[C@@H](CO)NC(=O)[C@@H](CCC(=O)O)NC(=O)[C@H](Cc2ccc(O)cc2)NC(=O)[C@H](CCCCCS)NC1=O [des4.2.0, SHA-Tyr-dGlu-dSer-Ser-dAsp-Arg-Val] (HELM PEPTIDE1{R.V.[O=C([C@H](CCCCCS)N[*:1])[*:2]].Y.[dE].[dS].S.[dD]}$PEPTIDE1,PEPTIDE1,1:R1-8:R2$$$V2.0)", "HDAC2 (Homo sapiens)", 726508),
    ("NCCCC[C@H]1NC(=O)[C@H](CCC(N)=O)NC(=O)[C@H](CCC(=O)O)NC(=O)[C@@H]2CCCN2C(=O)[C@H](CC(N)=O)NC(=O)[C@H](CCCCCS)NC(=O)CNC(=O)[C@H](Cc2c[nH]c3ccccc23)NC1=O [des1.1.1, SHA-Asn-Pro-Glu-Gln-dLys-Trp-Gly] (HELM PEPTIDE1{E.Q.[dK].W.G.[O=C([C@H](CCCCCS)N[*:1])[*:2]].N.P}$PEPTIDE1,PEPTIDE1,1:R1-8:R2$$$V2.0)", "HDAC2 (Homo sapiens)", 346891),
    ("CCCC[C@H]1NC(=O)[C@H](Cc2ccccc2)NC(=O)[C@H](CCCCCS)NC(=O)[C@@H](CO)NC(=O)[C@H](CC(=O)O)NC(=O)[C@@H](CO)NC(=O)[C@@H](C)NC(=O)[C@H](CCCCN)NC1=O [des4.3.1.1, SHA-Phe-dNle-Lys-dAla-dSer-Asp-dSer] (HELM PEPTIDE1{D.[dS].[O=C([C@H](CCCCCS)N[*:1])[*:2]].F.[CCCC[C@@H](N[*:1])C(=O)[*:2]].K.[dA].[dS]}$PEPTIDE1,PEPTIDE1,1:R1-8:R2$$$V2.0)", "HDAC2 (Homo sapiens)", 1679365),
    ("CCCC[C@H]1NC(=O)[C@H](CC(=O)O)NC(=O)[C@@H](CO)NC(=O)[C@@H](C)NC(=O)[C@H](CCCCN)NC(=O)[C@@H](CCCCN)NC(=O)[C@H](Cc2ccccc2)NC(=O)[C@H](CCCCCS)NC1=O [des4.3.1.2, SHA-Phe-dLys-Lys-dAla-dSer-Asp-dNle] (HELM PEPTIDE1{D.[CCCC[C@@H](N[*:1])C(=O)[*:2]].[O=C([C@H](CCCCCS)N[*:1])[*:2]].F.[dK].K.[dA].[dS]}$PEPTIDE1,PEPTIDE1,1:R1-8:R2$$$V2.0)", "HDAC2 (Homo sapiens)", 1733657),
    ("NCCCC[C@@H]1NC(=O)[C@@H]2C[C@@H](O)CN2C(=O)[C@H](CC(N)=O)NC(=O)[C@H](CCCCCS)NC(=O)CNC(=O)[C@H](Cc2c[nH]c3ccccc23)NC(=O)[C@@H](CCCCN)NC(=O)[C@H](CCC(N)=O)NC1=O [des1.1.2, SHA-Asn-Hpr-Lys-Gln-dLys-Trp-Gly] (HELM PEPTIDE1{G.[O=C([C@H](CCCCCS)N[*:1])[*:2]].N.[Hyp].K.Q.[dK].W}$PEPTIDE1,PEPTIDE1,1:R1-8:R2$$$V2.0)", "HDAC2 (Homo sapiens)", 724069),
]

----------
- experimental.target: HDAC3 (Homo sapiens, UniProt O15379)
- Construct: purchased Reaction Biology Corporation (assay run by the CRO)
- Sequence (O15379 whole entry): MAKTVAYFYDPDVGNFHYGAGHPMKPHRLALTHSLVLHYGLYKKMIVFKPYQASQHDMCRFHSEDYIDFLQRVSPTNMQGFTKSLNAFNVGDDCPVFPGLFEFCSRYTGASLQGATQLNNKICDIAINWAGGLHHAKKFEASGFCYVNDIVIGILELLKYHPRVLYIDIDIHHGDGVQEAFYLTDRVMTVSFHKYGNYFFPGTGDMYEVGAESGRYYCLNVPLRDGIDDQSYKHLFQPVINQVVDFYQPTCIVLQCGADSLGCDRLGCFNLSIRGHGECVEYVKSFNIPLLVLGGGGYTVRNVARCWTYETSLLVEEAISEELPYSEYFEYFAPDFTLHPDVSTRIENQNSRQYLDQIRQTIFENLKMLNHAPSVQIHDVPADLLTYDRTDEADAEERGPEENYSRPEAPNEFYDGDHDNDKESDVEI
- Sequence (Q9Y618 395-489 partner limits assumed): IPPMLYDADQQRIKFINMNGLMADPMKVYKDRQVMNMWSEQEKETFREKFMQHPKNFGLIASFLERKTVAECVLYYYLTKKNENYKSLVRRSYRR
- test.description: HDAC3 inhibition, full IC50 measurement (Reaction Biology; fluorogenic p53 peptide RHKK(Ac)AMC)
- Type: biochemical
- experimental.context: Conc. 3.70E-07 M, t1
Peptide text beside a SMILES is read from it.
experimental.endpoint: HDAC3 activity raw data (signal)

# molecule, result.value
measured = [
    ("N=C(N)NCCC[C@@H]1NC(=O)[C@H](Cc2c[nH]c3ccccc23)NC(=O)[C@H](CC(=O)O)NC(=O)[C@@H](CO)NC(=O)[C@H](Cc2c[nH]c3ccccc23)NC(=O)[C@H](CCCCCS)NC(=O)[C@H](CCC(N)=O)NC1=O [des4.1.0, SHA-Trp-dSer-Asp-Trp-Arg-Gln] (HELM PEPTIDE1{D.W.R.Q.[O=C([C@H](CCCCCS)N[*:1])[*:2]].W.[dS]}$PEPTIDE1,PEPTIDE1,1:R1-7:R2$$$V2.0)", 191695),
]

----------
- experimental.target: HDAC3 (Homo sapiens, UniProt O15379)
- Construct: purchased Reaction Biology Corporation (assay run by the CRO)
- test.description: HDAC3 inhibition, full IC50 measurement (Reaction Biology; fluorogenic p53 peptide RHKK(Ac)AMC)
- Format: biochemical
- experimental.context: Conc. 1.52E-09 M, t1
Peptide text beside a SMILES is read from it.

# compound, HDAC3 activity raw data (signal)
records = [
    ("NCCCC[C@H]1NC(=O)[C@H](CCC(N)=O)NC(=O)[C@H](CCC(=O)O)NC(=O)[C@@H]2CCCN2C(=O)[C@H](CC(N)=O)NC(=O)[C@H](CCCCCS)NC(=O)CNC(=O)[C@H](Cc2c[nH]c3ccccc23)NC1=O [des1.1.1, SHA-Asn-Pro-Glu-Gln-dLys-Trp-Gly] (HELM PEPTIDE1{E.Q.[dK].W.G.[O=C([C@H](CCCCCS)N[*:1])[*:2]].N.P}$PEPTIDE1,PEPTIDE1,1:R1-8:R2$$$V2.0)", 943875),
    ("CCCC[C@H]1NC(=O)[C@H](Cc2ccccc2)NC(=O)[C@H](CCCCCS)NC(=O)[C@@H](CCCNC(=N)N)NC(=O)[C@H](CC(=O)O)NC(=O)[C@@H](CO)NC(=O)[C@@H](C)NC(=O)[C@H](CCCCN)NC1=O [des4.3.1, SHA-Phe-dNle-Lys-dAla-dSer-Asp-dArg] (HELM PEPTIDE1{D.[dR].[O=C([C@H](CCCCCS)N[*:1])[*:2]].F.[CCCC[C@@H](N[*:1])C(=O)[*:2]].K.[dA].[dS]}$PEPTIDE1,PEPTIDE1,1:R1-8:R2$$$V2.0)", 1121419),
    ("N=C(N)NCCC[C@H]1NC(=O)[C@@H]2CCCN2C(=O)[C@H](CO)NC(=O)[C@@H](Cc2c[nH]cn2)NC(=O)[C@H](CCCCCS)NC(=O)[C@H](CCCCN)NC(=O)[C@H](Cc2ccc(O)cc2)NC(=O)[C@H]2CCCN2C(=O)[C@@H](CCC(N)=O)NC1=O [des3.1.0, SHA-dHis-Ser-Pro-dArg-dGln-dPro-Tyr-Lys] (HELM PEPTIDE1{K.[O=C([C@H](CCCCCS)N[*:1])[*:2]].[dH].S.P.[dR].[dQ].[dP].Y}$PEPTIDE1,PEPTIDE1,1:R1-9:R2$$$V2.0)", 936917),
]
